# study_system: human recombinant 6His-Nterm SHP2 full-length (Thr2-Arg593) (Homo sapiens, UniProt Q06124)
# Construct: 6His-Nterm SHP2 full-length (Thr2-Arg593, R&D system); 6His (N)
# Sequence (Q06124 2-593): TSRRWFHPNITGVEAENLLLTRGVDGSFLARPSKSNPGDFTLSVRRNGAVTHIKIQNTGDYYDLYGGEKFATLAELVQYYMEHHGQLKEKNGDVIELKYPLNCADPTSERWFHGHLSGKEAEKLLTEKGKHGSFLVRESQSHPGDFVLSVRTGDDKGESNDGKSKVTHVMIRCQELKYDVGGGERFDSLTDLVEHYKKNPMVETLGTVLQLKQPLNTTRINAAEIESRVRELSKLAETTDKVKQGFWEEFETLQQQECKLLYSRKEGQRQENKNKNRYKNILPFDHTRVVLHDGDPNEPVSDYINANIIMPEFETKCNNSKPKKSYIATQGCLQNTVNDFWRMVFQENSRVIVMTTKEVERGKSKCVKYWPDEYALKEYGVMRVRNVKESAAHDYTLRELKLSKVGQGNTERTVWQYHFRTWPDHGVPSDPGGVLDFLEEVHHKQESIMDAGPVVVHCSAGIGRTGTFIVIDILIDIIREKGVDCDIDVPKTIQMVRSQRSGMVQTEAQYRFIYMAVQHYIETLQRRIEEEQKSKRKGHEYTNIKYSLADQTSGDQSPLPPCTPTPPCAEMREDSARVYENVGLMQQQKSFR
# measurement_description: SHP2 Phosphatase Assay (DiFMUP fluorescence)
# assay_conditions: SHP2 0.2 nM pre-incubated with 100 nM bi-phosphorylated activating peptide; compound 1000-0.05 nM, 30 min pre-incubation; DiFMUP 20 µM, 45 min, room temperature; 10-concentration dose-response
pIC50: −log10 of the molar value. Structures can show the parent of a compound that is named as a salt.
# if value of pIC50 reaches 8, tag fulfilled; if it stays below, tag not fulfilled

                                   compound  assigned_label
0  Cc1nc(N2CCC3(CC2)Cc2ncccc2[C@H]3N)c2ccnn2c1-c1ccsc1Cl       fulfilled
1  Cc1cc(-c2c(C)nc(N3CCC4(CC3)Cc3ncccc3[C@H]4N)c3ccnn23)cnn1 [Compound 124, hydrochloride]   not fulfilled
2  Cc1nc(N2CCC3(CC2)Cc2ncccc2[C@H]3N)c2c(F)cnn2c1-c1ccccc1 [Compound 143, hydrochloride]   not fulfilled
3  Cc1nc(N2CCC3(CC2)Cc2ncccc2[C@H]3N)c2ccnn2c1-c1cccc(C(F)(F)F)c1F       fulfilled
4  Cc1nn(C)c(C)c1-c1c(C)nc(N2CCC3(CC2)Cc2ncccc2[C@H]3N)c2ccnn12   not fulfilled
5  Cc1nc(N2CCC3(CC2)Cc2ncccc2[C@H]3N)c2c(C(F)F)cnn2c1-c1ccccc1   not fulfilled

Hello, the source for this data is patent EP4227307A1, in case you need it.
